Data provenance: PubChem BioAssay (EPA / NIEHS)

read-out: Macrophage colony-stimulating factor (MCSF), CSF1 (gene 1435); test: BSK_CASM3C_MCSF: BioMAP Diversity Plus: CASM3C Assay for Macrophage colony-stimulating factor (MCSF) Biomarker Activity (AID 2283044); conditions: primary human coronary artery smooth muscle cells; actives raise or lower the signal;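 further: M-CSF protein amount quantified by ELISA after 24 h exposure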
Calls of active or inactive are those of the source. How the source made its calls: active means hit-call score of the fitted dose curve at least 0.9, where 1 is the maximum; inactive means score below 0.9.
// classify into T = active, F = inactive

Record excerpt, results attached:
Query :: Could you check what this test reported for CCN(CC)c1ccc2c(c1)Oc1cc(N(CC)CC)ccc1C21OC(=O)c2ccccc21 ?
Result :: F

Query :: Could you check what this test reported for COC(F)(C(F)F)C(F)(F)F (stereo not given) ?
Result :: F

Query :: Could you check what this test reported for OC(O)C(F)(F)C(F)(F)F ?
Result :: F

---
Query :: Could you check what this test reported for Cc1cc(O)c(C(C)(C)C)cc1C(C)(C)C ?
Result :: T

Query :: Could you check what this test reported for O=C(O)CCC(F)(F)C(F)(F)C(F)(F)C(F)(F)C(F)(F)C(F)(F)C(F)(F)F ?
Result :: F

Query :: Could you check what this test reported for O=C=Nc1cccc2c(N=C=O)cccc12 ?
Result :: F

Query :: Could you check what this test reported for C=CC(=O)OCC(F)(F)C(F)(F)C(F)(F)C(F)(F)C(F)(F)C(F)(F)C(F)(F)C(F)F ?
Result :: F

Query :: Could you check what this test reported for O=S(=O)(OCC(F)(F)F)C(F)(F)C(F)(F)C(F)(F)C(F)(F)F ?
Result :: F

###

assay: ATG_SREBP_CIS: Attagene CIS-FACTORIAL HepG2 Assay for human Sterol Regulatory Element Binding (SREBP) (AID 2282962); details: HepG2 Attagene cis-factorial SREBP reporter, mRNA; actives raise or lower the signal
The source made the active and inactive calls. Rule for the calls: active = hit-call score of the fitted dose curve at least 0.9, where 1 is the maximum; inactive = score below 0.9.
Reported Endpoint: outcome

Worked cases, outcome given:
Query :: Indicate the recorded outcome value for this compound: CN(C(=O)C(F)(F)C(F)(F)C(F)(F)F)[Si](C)(C)C
Result :: inactive

Query :: Indicate the recorded outcome value for this compound: CCc1ccc(C)nc1
Result :: inactive

Query :: Indicate the recorded outcome value for this compound: Brc1ccccn1
Result :: inactive

Query :: Indicate the recorded outcome value for this compound: O=S(=O)(O)CCC(F)(F)C(F)(F)C(F)(F)C(F)(F)C(F)(F)C(F)(F)C(F)(F)C(F)(F)F
Result :: inactive

Query :: Indicate the recorded outcome value for this compound: CCOC(C=C(C)CCC=C(C)C)OCC
Result :: inactive

Provide reported outcome for each item, in the same order as listed.
1. Nc1c(Br)cc([N+](=O)[O-])cc1Br
2. C=CC(=O)OCC(F)(F)C(F)(F)C(F)(F)C(F)(F)C(F)(F)C(F)(F)C(F)(F)C(F)F
3. CCCCOC(=O)[C@H](C)O

Result ::
1: inactive; 2: inactive; 3: inactive

Query :: Indicate the recorded outcome value for this compound: O=c1cccc[nH]1
Result :: inactive

###

test: BSK_4H_Eotaxin3: BioMAP Diversity Plus: 4H Assay for Eotaxin 3 Biomarker Activity (AID 2283000); conditions: primary human endothelial cells (HUVEC); actives raise or lower the signal
The source made the active and inactive calls. Rule for the calls: active = hit-call score of the fitted dose curve at least 0.9, where 1 is the maximum; inactive = score below 0.9.
// classify into active, inactive

Query :: Could you check what this test reported for Cc1ccc(O)c(-n2nc3ccccc3n2)c1 ?
Result :: inactive

Query :: Could you check what this test reported for CCN(CC)c1ccc(N=Nc2ccccc2)cc1 ?
Result :: active

---
Query :: Could you check what this test reported for OCCCCC(F)(F)C(F)(F)C(F)(F)C(F)(F)F ?
Result :: inactive

###

experiment: ATG_ISRE_CIS: Attagene CIS-FACTORIAL HepG2 Assay for human Interferon Regulatory Factor 1 (IRF1) binding to an Interferon-Stimulated Response Element (ISRE) (AID 2282948); settings: HepG2 ISRE cis-reporter (Attagene), mRNA transcription readout; actives raise or lower the signal
Calls of active or inactive are those of the source. Rule for the calls: active = hit-call score of the fitted dose curve at least 0.9, where 1 is the maximum; inactive = score below 0.9.
// classify into class 1 = active, class 0 = inactive

Record excerpt, results attached:
Query :: Could you check what this test reported for O=S(=O)(O)CCC(F)(F)C(F)(F)C(F)(F)C(F)(F)C(F)(F)C(F)(F)C(F)(F)C(F)(F)F ?
Result :: class 0

Query :: Could you check what this test reported for CCCCCC/C=C/CCCCCCCC(=O)O ?
Result :: class 0

Query :: Could you check what this test reported for NC(=O)C(F)(F)C(F)(F)C(F)(F)F ?
Result :: class 0

Query :: Could you check what this test reported for CCCCOC(=O)[C@H](C)O ?
Result :: class 0

Query :: Could you check what this test reported for O=C(Cl)C(F)(F)C(F)(F)C(F)(F)C(F)(F)C(F)(F)C(F)(F)F ?
Result :: class 0

Query :: Could you check what this test reported for OCC(F)(F)C(F)(F)C(F)(F)C(F)(F)C(F)(F)C(F)(F)C(F)(F)C(F)(F)CO ?
Result :: class 0

Query :: Could you check what this test reported for CC(C)Nc1ccc(NC(C)C)c2c1C(=O)c1ccccc1C2=O ?
Result :: class 0

Query :: Could you check what this test reported for O=C(O)C(F)(F)C(F)(F)C(F)(F)OC(F)(C(F)(F)F)C(F)(F)F ?
Result :: class 0

Query :: Could you check what this test reported for CC1CCCCC1 ?
Result :: class 0

Query :: Could you check what this test reported for Brc1nc2ccccc2s1 ?
Result :: class 0

---
Query :: Could you check what this test reported for CN(C(=O)C(F)(F)C(F)(F)C(F)(F)F)[Si](C)(C)C ?
Result :: class 0

Query :: Could you check what this test reported for CCN(CC)c1ccc2c(c1)Oc1cc(N(CC)CC)ccc1C21OC(=O)c2ccccc21 ?
Result :: class 1

Query :: Could you check what this test reported for OCCCc1cccnc1 ?
Result :: class 0

Query :: Could you check what this test reported for O=C(Cl)c1ccc(Cl)cc1Cl ?
Result :: class 0

Query :: Could you check what this test reported for CCCCOC(=O)C(C)O (centres undefined) ?
Result :: class 0

###

read-out: TIMP metallopeptidase inhibitor 1 (TIMP1), TIMP1 (gene 7076); assay: BSK_hDFCGF_TIMP1: BioMAP Diversity Plus: hDFCGF Assay for TIMP metallopeptidase inhibitor 1 (TIMP1) Biomarker Activity (AID 2283062); settings: primary human foreskin fibroblasts; actives raise or lower the signal
The source made the active and inactive calls. Rule for the calls: active = hit-call score of the fitted dose curve at least 0.9, where 1 is the maximum; inactive = score below 0.9.
// classify into active, inactive

Query :: Could you check what this test reported for C=C(C)C(=O)OCC(F)(F)C(F)(F)C(F)(F)C(F)F ?
Result :: inactive

Query :: Could you check what this test reported for O=C(O)C(F)(F)OC(F)(F)C(F)(F)OC(F)(F)C(F)(F)OC(F)(F)F ?
Result :: inactive

Query :: Could you check what this test reported for O=C1C=CC(=O)N1c1ccc(Cc2ccc(N3C(=O)C=CC3=O)cc2)cc1 ?
Result :: active

Query :: Could you check what this test reported for OCC(O)CC(F)(F)C(F)(F)C(F)(F)C(F)(F)C(F)(F)C(F)(F)C(F)(F)C(F)(F)F (configuration not stated) ?
Result :: inactive

Query :: Could you check what this test reported for CCN(CC)c1ccc(N=Nc2ccccc2)cc1 ?
Result :: inactive

---
Query :: Could you check what this test reported for Cc1cnccn1 ?
Result :: inactive

Query :: Could you check what this test reported for OCC(F)(F)C(F)(F)C(F)(F)C(F)(F)C(F)(F)C(F)(F)CO ?
Result :: inactive

Query :: Could you check what this test reported for FC(F)(F)C(F)(F)C(F)(F)CC1CO1 (configuration not stated) ?
Result :: inactive

Query :: Could you check what this test reported for O=C=Nc1cccc2c(N=C=O)cccc12 ?
Result :: inactive

Query :: Could you check what this test reported for CCN(CC)c1ccc2c(c1)Oc1cc(N(CC)CC)ccc1C21OC(=O)c2ccccc21 ?
Result :: inactive

Query :: Could you check what this test reported for NC(=O)C(F)(F)C(F)(F)C(F)(F)C(F)(F)C(N)=O ?
Result :: inactive

Query :: Could you check what this test reported for Cc1cc(O)c(C(C)(C)C)cc1C(C)(C)C ?
Result :: active

###

assay: CCTE_Shafer_MEA_dev_per_burst_spike_percent: CCTE's Neural Network Formation Assay for Percent of Spikes in a Burst, Shafer Lab (AID 2284032)
Calls of active or inactive are those of the source. Rule for the calls: active = hit-call score of the fitted dose curve at least 0.9, where 1 is the maximum; inactive = score below 0.9.
Reported Endpoint: outcome

Query :: Indicate the recorded outcome value for this molecule: O=S(=O)(O)CCC(F)(F)C(F)(F)C(F)(F)C(F)(F)F
Result :: inactive

Query :: Indicate the recorded outcome value for this molecule: OCC(O)CC(F)(F)C(F)(F)C(F)(F)C(F)(F)F (configuration not stated)
Result :: inactive

Query :: Indicate the recorded outcome value for this molecule: OCCCCC(F)(F)C(F)(F)C(F)(F)C(F)(F)F
Result :: inactive

Query :: Indicate the recorded outcome value for this molecule: NC(=O)C(F)(F)C(F)(F)C(F)(F)C(F)F
Result :: inactive

Query :: Indicate the recorded outcome value for this molecule: NC(=O)C(F)(F)C(F)(F)C(F)(F)C(F)(F)C(N)=O
Result :: inactive

Query :: Indicate the recorded outcome value for this molecule: CO[Si](C)(CCC(F)(F)C(F)(F)C(F)(F)C(F)(F)C(F)(F)C(F)(F)F)OC
Result :: inactive

Turning now to a further record.
Query :: Indicate the recorded outcome value for this molecule: NC(O)(C(F)(F)F)C(F)(F)F
Result :: inactive
